assay: BSK_SAg_PBMCCytotoxicity: PBMC Cytotoxicity Assessment in the BioMAP Diversity Plus: SAg Assay (AID 2283093); conditions: primary human HUVEC with PBMC;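 also: PBMC viability measured as Alamar Blue reduction fluorescence at 546/580 nm; fitted both ways against DMSO so a hit may be loss or gain of signal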;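 as to AC50: PBMC superantigen activated with SEB plus TSST-1 one hour after compound addition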
Active and inactive are the calls of the source. The calls were made as follows: active = hit-call score of the fitted dose curve at least 0.9, where 1 is the maximum; inactive = score below 0.9.
ASSAY_ENDPOINT: AC50

COMPOUND | AC50
COC(=O)c1sccc1S(=O)(=O)NC(=O)Nc1nc(C)nc(OC)n1 | inactive
COP(=S)(OC)Oc1cc(Cl)c(Cl)cc1Cl | inactive
CCC(=O)C(CC(C)N(C)C)(c1ccccc1)c1ccccc1 (stereo not drawn) | inactive
CN(C)N=O | inactive
NC(=S)Nc1ccccc1 | inactive
COC(=O)Cc1ccccc1 | inactive
C=CC(=O)OCCCCCC(C)C | inactive
O=[N+]([O-])c1ccc(O)c([N+](=O)[O-])c1 | inactive
CC(C)(OO)c1ccccc1 | inactive
C[C@@H]1C[C@@H]([C@H](O)CC2CC(=O)NC(=O)C2)C(=O)[C@@H](C)C1 | 4.6 µM (active)

input: If you can, please state the reported AC50 value of COc1cc(OC)nc(NC(=O)NS(=O)(=O)c2ncccc2C(=O)N(C)C)n1 .
output: inactive

input: Same for CCOP(=S)(OCC)Oc1ccc(S(C)=O)cc1 (stereo not drawn)
output: inactive

input: Entry to check: CC(=O)C(Cl)C(=O)N(C)C (stereo not drawn)
output: 7.81 µM (active)
